Would you mind telling me the reported IC50 of each entry?
- Tested on: β-catenin/Tcf-4
- PROTOCOL: cells
- Type: cell-based
- SETUP CONDITIONS: Homo sapiens, SW480, 24 h, Tcf 33.13 cells derived from SW480; 24 hours of incubation with compound; ratio Firefly/Renilla luciferase
Respond with the bare value in nM.

Recorded IC50 of CCN(CC)c1nc(NCc2ccc(NC(=O)c3ccc(F)cc3)cc2)c2ccccc2n1 , please. 1260

Recorded IC50 of Cc1ccc2c(NCc3ccc(NC(=O)c4ccc(F)cc4)cc3)nc(N3CCN(CC(=O)NC(C)C)CC3)nc2c1 , please. 1420

----------
- Tested on: β-catenin/Tcf-4
- PROTOCOL: cells
- Format: cell-based
- SETUP CONDITIONS: Homo sapiens, SW480, 24 h, Tcf 33.13 cells derived from SW480; 24 hours of incubation with compound; ratio Firefly/Renilla luciferase
RESULT TYPE: log10 of IC50 (log10 of the value in nM)
Use the decimal logarithm of IC50 (nM).

Recorded log10 of IC50 of C=Cc1ccc2c(N[C@@H](C)c3ccc(NC(=O)c4ccc(Cl)nc4)cc3)nc(N(C)C)nc2c1 , please. 2.59

Recorded log10 of IC50 of Cc1ccc2c(NCc3ccc(NC(=O)c4ccc(F)cc4)cc3)nc(N(C)Cc3ccco3)nc2c1 , please. 3.03

Recorded log10 of IC50 of Cc1ccc2nc(N(C)Cc3ccccn3)nc(NCc3ccc(NC(=O)c4ccc(F)cc4)cc3)c2c1 , please. 3.32

Recorded log10 of IC50 of Cc1ccc2c(NCc3ccc(NC(=O)c4ccc(Cl)cc4)cc3)nc(NCCc3ccccn3)nc2c1 , please. 2.58

Recorded log10 of IC50 of CCN(CC)c1nc(NCc2ccc(NC(=O)c3ccc(F)cc3)cc2)c2cc(C)ccc2n1 , please. 2.69

Recorded log10 of IC50 of Cc1ccc2c(NCc3ccc(NC(=O)C4CCN(Cc5ccc(F)c(F)c5)CC4)cc3)nc(N(C)C)nc2c1 , please. 2.03

Recorded log10 of IC50 of O=C(Nc1ccc(CNc2nc(NCc3ccco3)nc3ccc(C(F)(F)F)cc23)cc1)c1ccc(Cl)cc1 , please. 3.11

Recorded log10 of IC50 of O=C(Nc1ccc(CNc2nc(NC3CCCCC3)nc3ccccc23)cc1)c1ccc(F)cc1 , please. 2.56

Recorded log10 of IC50 of CN(C)c1nc(NCc2ccc(NC(=O)C3CCN(Cc4ccccc4)CC3)cc2)c2ccccc2n1 , please. 3.25
